Target: binding partner of C5A (XPA23)
Experiment: Biacore
Recorded fold difference in affinity vs original by entry
Numbers only; they are read as fold.

BINDER	fold difference in affinity vs original (fold)
C5A (XPA23) VH Y107A (antibody, V domains shown) VH: EVQLLESGGGLVQPGGSLRLSCAASGFTFSKYFMFWVRQAPGKGLEWVSVISPSGGMTRYADSVKGRFTISRDNSKNTLYLQMNSLRAEDTAVYYCARVGYGGNSDAWGQGTLVTVSS VL: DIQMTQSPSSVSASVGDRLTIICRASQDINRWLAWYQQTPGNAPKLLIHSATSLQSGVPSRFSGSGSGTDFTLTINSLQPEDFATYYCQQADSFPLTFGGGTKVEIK	0.83
C5A (XPA23) VH S30A (antibody, V domains shown) VH: EVQLLESGGGLVQPGGSLRLSCAASGFTFAKYFMFWVRQAPGKGLEWVSVISPSGGMTRYADSVKGRFTISRDNSKNTLYLQMNSLRAEDTAVYYCARVGYGGNSDYWGQGTLVTVSS VL: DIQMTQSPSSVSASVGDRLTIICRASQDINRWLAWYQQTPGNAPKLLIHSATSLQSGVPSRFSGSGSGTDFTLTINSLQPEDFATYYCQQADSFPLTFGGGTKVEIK	0.77

[ask] fold difference in affinity vs original lookup needed for C5A (XPA23) VH Y32T (antibody, V domains shown) VH: EVQLLESGGGLVQPGGSLRLSCAASGFTFSKTFMFWVRQAPGKGLEWVSVISPSGGMTRYADSVKGRFTISRDNSKNTLYLQMNSLRAEDTAVYYCARVGYGGNSDYWGQGTLVTVSS VL: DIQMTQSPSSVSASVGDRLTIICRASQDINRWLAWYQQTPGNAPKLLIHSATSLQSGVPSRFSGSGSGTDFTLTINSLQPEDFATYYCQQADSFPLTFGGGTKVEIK , thanks.
[reply] 0.8
